# measured-on: BACE1 (Homo sapiens, UniProt P56817)
# Sequence (P56817 46-501, species assumed): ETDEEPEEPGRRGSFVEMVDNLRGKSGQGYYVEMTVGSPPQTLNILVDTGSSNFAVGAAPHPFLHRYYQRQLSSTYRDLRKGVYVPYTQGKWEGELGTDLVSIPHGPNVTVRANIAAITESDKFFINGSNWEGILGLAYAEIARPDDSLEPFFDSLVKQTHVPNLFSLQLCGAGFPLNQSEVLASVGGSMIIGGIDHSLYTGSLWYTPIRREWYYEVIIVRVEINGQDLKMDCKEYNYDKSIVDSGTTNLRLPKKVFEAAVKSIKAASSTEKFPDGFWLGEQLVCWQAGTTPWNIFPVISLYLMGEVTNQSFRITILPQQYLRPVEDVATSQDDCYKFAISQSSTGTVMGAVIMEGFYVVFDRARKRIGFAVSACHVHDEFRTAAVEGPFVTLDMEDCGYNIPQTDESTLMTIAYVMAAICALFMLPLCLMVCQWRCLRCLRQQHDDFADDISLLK
# assay-remarks: In vitro enzymatic BACE FRET (fluorescence resonance energy transfer) assay
# Type: biochemical
# condition-info: read-out: BACE 1 FRET assay
pIC50: −log10 of the molar value.
value-kind: pIC50

Recorded pIC50, per entry:
C=CC[C@H](NC(=O)C1COC(c2ccccn2)O1)[C@H](O)CNC1CC2(CCC2)Oc2ncc(CC(C)(C)C)cc21 (some centres unmarked) [compound 242] : 5.42
C=CC[C@H](NC(=O)COC)[C@H](O)CN[C@H]1CC2(CCC2)Oc2c(-c3nccs3)cc(CC(C)(C)C)cc21 [compound 215] : 7.24
C=CC[C@H](NC(=O)COC)[C@H](O)CN[C@H]1CC2(CCC2)Oc2c1cc(CC(C)(C)C)nc2Nc1ccncc1 [compound 232] : 6.90

[1] C=CC[C@H](NC(=O)COC)[C@H](O)CN[C@H]1CC2(CCC2)Oc2c(-c3cnc[nH]3)cc(CC(C)(C)C)cc21 [compound 218]
[2] CCC[C@H](NC(=O)[C@H]1CCCO1)[C@H](O)CN[C@H]1CC2(CCC2)Oc2c1cc(CC(C)(C)C)nc2NC [compound 228]
[3] C=CC[C@H](NC(C)=O)[C@H](O)CN[C@H]1CC2(CCC2)Oc2c1cc(CC(C)(C)C)nc2Nc1nccs1 [compound 235]
Request: In this exercise, place the 3 compounds in ascending sequence of their recorded pIC50. List the labels in the requested order.
Result: 2, 1, 3
